Source listed as paper PMC5540273.

Test system: FLT4
Conditions: concentration: 1 μM, replicates: in singlicate; n = 1;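 further: KINOMEscan kinase panel screen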
Task for the reader: assign each of the following compounds its reported %Inh.
One number for each entry, in %.

Worked examples, 3 compounds total:
| smiles.string | unit.abbreviation | %Inh |
| --- | --- | --- |
| COc1cc2ncnc(Nc3ccc4nc(-c5ccccc5)[nH]c4c3)c2cc1OC.Cl | % | 0 |
| Cl.Oc1ccc(-c2nc(-c3ccccc3)[nH]c2-c2ccncc2)cc1 | % | 0 |
| COc1ccc(C2=C(Nc3cccc(C(=O)O)c3)C(=O)NC2=O)cc1 | % | 15 |

Please look at the items below and tell me %Inh for each one, in order.
1. CCn1c(-c2ccccn2)nc2cnccc21
2. O=C(Nc1n[nH]c2nc(-c3nccs3)c(Br)cc12)C1CC1

Ans.
1: 0; 2: 8

----------
Consider the following molecules; for each one, report its %Inh.
Tested on: CDC2L1
Construct: gene CDK11B
Conditions: concentration: 1 μM, replicates: in singlicate; n = 1
One number for each entry, in %.

Consider the reported %Inh for these molecules:
| molecule | %Inh / % |
| --- | --- |
| Cc1c(Cn2ccn3c(=O)cc(N4CCOCC4)nc23)cccc1C(F)(F)F [GSK2289044] | 0 |
| CC(=O)Nc1nc2cnc(Nc3cc(NC(=O)c4cccc(CCC#N)c4)ccc3C)nc2s1 | 6 |
| O=C(Nc1n[nH]c2nc(-c3nccs3)c(Br)cc12)C1CCCC1 [SB-742609] | 100 |

Now examine the next entry.
Qu. Which measured %Inh value corresponds to COc1ccc(Nc2nccc(NCCNC(=O)Nc3ccccc3F)n2)cc1 [GSK1379901] ?
Ans. 5

----------
Exercise: state measured %Inh for each of the molecules provided.
Tested on: PCTK3
Construct: gene CDK18
Conditions: concentration: 1 μM, replicates: in singlicate; n = 1
One number for each entry, in %.

| smiles.string | recorded.measurement |
| --- | --- |
| Cn1cncc1-c1ccc2ncnc(Nc3ccc(OCc4ccccc4)cc3)c2c1 | 7 |
| CCn1c(-c2ccccn2)nc2cnccc21 | 17 |

Please supply %Inh for each of the following items, keeping them in order.
1. COc1ccccc1-c1ccc2c(NC(=O)C3CC3)n[nH]c2n1
2. COc1cc2nccc(Nc3ccc(NC(=O)c4ccc(C)cc4)c(O)c3)c2cc1OC.Cl
3. CS(=O)(=O)c1ccc(-c2nc3n(c2-c2ccncc2)CCC3)cc1
4. Clc1cc(Cl)cc(Nc2ccnc(Nc3cc(Cl)cc(Cl)c3)n2)c1

Ans.
1. 27
2. 19
3. 0
4. 0

Return reported %Inh values for all items listed beneath this line.
1. C[C@@H]1CCCCN1c1cc(-c2ccc3c(N)n[nH]c3c2)nc(N)n1
2. O=C1NC(=O)C(N2CCc3ccccc32)=C1c1ccccc1Cl
3. O=c1cc(N2CCOCC2)nc2n(Cc3cccc(Cl)c3Cl)ccn12
4. Cc1ccc(C(=O)Nc2ccc(Nc3ccnc4cc(-c5ccccn5)ccc34)cc2O)cc1.Cl

Ans.
1: 0; 2: 17; 3: 13; 4: 24

Quick request: %Inh for each listed item, please.
1. COc1ccc(Nc2nccc(-c3cccc(NC(=O)c4cc5cc(F)ccc5[nH]4)c3)n2)cc1
2. Cc1cccc(-c2cc(Nc3ccncc3)c3ccccc3n2)n1
3. Cc1ccc(NC(=O)Nc2cccc(Cl)c2)cc1-c1ccc(C(=O)Nc2ccncc2)cc1
4. Cl.O=C(Nc1cccc(-c2nn3ncccc3c2-c2ccnc(Nc3cccnc3)n2)c1)c1c(F)cccc1F
5. Cc1csc(-c2nc(Nc3ccncc3)c3ccccc3n2)n1

Ans.
1: 7; 2: 0; 3: 0; 4: 0; 5: 12

Record %Inh for all entries; do not skip any.
1. Nc1ncnc2[nH]c(-c3ccccc3)nc12
2. Cc1cc(NCC(c2ccccc2)c2ccccc2)nc(NCc2ccc(C(F)(F)F)cc2)n1
3. CC(C)(C)c1ccc(C(=O)Nc2cn3cc(Cl)ccc3n2)cc1
4. O=S(=O)(c1ccc(-c2ccnc3[nH]ccc23)cc1)N1CCCC1
5. COC(=O)c1c(-c2ccccc2)c2cc(C(=O)O)ccc2c(=O)n1Cc1ccccc1

Ans.
1. 0
2. 35
3. 0
4. 0
5. 0

----------
Test system: RSK3(Kin.Dom.2-C-terminal)
Construct: gene RPS6KA2
Conditions: concentration: 1 μM, replicates: in singlicate; n = 1
Note to self: use YES only for %Inh readings below 1%; a reading exactly at 1% still gets NO.

| molecule | label |
| --- | --- |
| COC(=O)c1c(-c2ccccc2)c2cc(OC)ccc2c(=O)n1Cc1ccccc1 | NO |

Now for another entry.
Qu. Field: below-cutoff. Rule: recorded %Inh strictly less than 1%. Subject: Cc1ccc(C(=O)Nc2ccc(Nc3ccnc4cc(-c5ccccn5)ccc34)cc2O)cc1.Cl [GW440146]
Ans. YES

----------
System: DCAMKL3
Construct: gene DCLK3
Conditions: concentration: 1 μM, replicates: in singlicate; n = 1
metric: %Inh (%)
Numbers only, in %.

Known %Inh results, listed for orientation:
| smiles.string | subject.of.test | %Inh / % |
| --- | --- | --- |
| O=C1NC(=O)C(N2CCc3ccccc32)=C1c1ccccc1Cl | DCAMKL3 | 11 |
| O=S(=O)(c1ccc(-c2ccnc3[nH]ccc23)cc1)N1CCCC1 | DCAMKL3 | 0 |
| CN(C)CCN(C)C(=O)c1cc(-c2ccncc2)c(-c2ccc(Cl)c(O)c2)o1.Cl.Cl | DCAMKL3 | 0 |

Provide each entry's %Inh from the list below.
1. COC(=O)c1c(-c2ccccc2)c2cc(C(=O)O)ccc2c(=O)n1Cc1ccccc1
2. O=C(Nc1n[nH]c2nc(-c3nccs3)c(Br)cc12)C1CC1
3. Clc1cc(Cl)cc(Nc2ccnc(Nc3cc(Cl)cc(Cl)c3)n2)c1
4. COc1cc2ncnc(Nc3ccc4nc(-c5ccccc5)[nH]c4c3)c2cc1OC.Cl
5. Cc1ccc(-c2cc(-c3c[nH]nc3-c3ccccn3)ccn2)cc1

Ans.
26
0
0
0
0

----------
System: MEK6
Construct: gene MAP2K6
Details: concentration: 1 μM, replicates: in singlicate; n = 1
metric: %Inh (%)
Answers are plain numbers, in %.

Please supply %Inh for each of the following items, keeping them in order.
1. COc1ccc(C2=C(Nc3cccc(C(=O)O)c3)C(=O)NC2=O)cc1
2. Cc1cc(NCC(c2ccccc2)c2ccccc2)nc(NCc2ccc(C(F)(F)F)cc2)n1

Ans.
0
0

Below are 7 molecules. Give each one its %Inh.
1. Fc1cccc(COc2nnc(-c3ccc4c(c3)CCO4)o2)c1
2. Cc1cccc(-c2cc(Nc3ccncc3)c3ccccc3n2)n1
3. Cn1ccc2ncnc(Oc3cccc(C(=O)Nc4ccccc4)c3)c21
4. COC(=O)c1c(-c2ccccc2)c2cc(C(=O)O)ccc2c(=O)n1Cc1ccccc1
5. Fc1cc(Cl)ccc1Nc1ccnc2cc(I)ccc12
6. Cc1ccc(C(=O)Nc2ccc(Nc3ccnc4cc(-c5ccccn5)ccc34)cc2O)cc1.Cl
7. Cc1cc(N2Cc3ccccc3C2)nc(Nc2ccc(S(=O)(=O)N3CCOCC3)cc2)n1.Cl

Ans.
0
0
0
0
0
0
0

// for each molecule below, give its %Inh
1. CSc1nn2c(=O)cc(N3CCOCC3)nc2n1Cc1cccc(C(F)(F)F)c1C
2. Nc1nc(-c2nccs2)c(-c2ccnc3ccccc23)s1
3. COc1cc2nccc(Nc3ccc(NC(=O)c4ccc(C)cc4)c(O)c3)c2cc1OC.Cl
4. CC(=O)Nc1nc2cnc(Nc3cc(NC(=O)c4cccc(CCC#N)c4)ccc3C)nc2s1
5. CC(C)(C)c1ccc(C(=O)Nc2cn3cc(-c4cccnc4)ccc3n2)cc1
6. Cc1cc(-c2ccc3c(c2)CC[C@@H](N[C@@H](C)c2ccccc2)C3)cnc1N.Cl

Ans.
0
0
0
12
32
0

Qu. Look up %Inh: O=C(Nc1n[nH]c2cc(-c3cccc(F)c3F)ccc12)C1CC1
Ans. 20

----------
Tested on: NEK6
Settings: concentration: 1 μM, replicates: in singlicate; n = 1
Give measured %Inh for each item. Keep answers brief.
One number for each entry, in %.

| compound | unit.abbreviation | %Inh |
| --- | --- | --- |
| Cl.Oc1ccc(-c2nc(-c3ccccc3)[nH]c2-c2ccncc2)cc1 | % | 0 |
| Nc1ncnc2[nH]c(-c3ccccc3)nc12 | % | 0 |
| COc1ccccc1-c1ccc2c(NC(=O)C3CC3)n[nH]c2n1 | % | 4 |

List %Inh for every entry below, keeping the order given.
1. CC(C)(C)c1ccc(C(=O)Nc2cn3cc(Cl)ccc3n2)cc1
2. COc1cc(Nc2nccc(N3CCC(NC(=O)Nc4cc(C)ccc4C)C3)n2)cc(OC)c1OC (stereo not shown)
3. Nc1nc(-c2nccs2)c(-c2ccnc3ccccc23)s1
4. C[C@@H]1CCCCN1c1cc(-c2ccc3c(N)n[nH]c3c2)nc(N)n1
5. COC(=O)c1c(-c2ccccc2)c2cc(C(=O)O)ccc2c(=O)n1Cc1ccccc1
6. Cc1ccc(NC(=O)Nc2cccc(Cl)c2)cc1-c1ccc(C(=O)Nc2ccncc2)cc1

Ans.
0
1
0
0
0
0

Qu. Form field - read-out: %Inh; system: NEK6; submitted item: O=C(O)COc1ncnc2cc(-c3ccc4[nH]ncc4c3)sc12
Ans. 22
